STUDY_SYSTEM: human C5 protein (human, UniProt P01031 19-673; P01031 678-1676)
ASSAY_REMARKS: cell-based or functional assay
Positions of bridges follow the written chain, without caps; N, C: chain ends. Non-standard residues stand in square brackets, D forms with d. Primed or numbered codes have the meaning given here. No end group written: not given here. mXylyl(3) = bridging moiety between the two residues given in brackets; Trp(7-aza) = N[C@@H](Cc1c[nH]c2ncccc12)C(=O)O; mXylyl(4) = bridging moiety between residues; Phg = N[C@H](C(=O)O)c1ccccc1; Tle = CC(C)(C)[C@H](N)C(=O)O; Nva = CCC[C@H](N)C(=O)O
REPORTED_METRIC: Avg. IC50, human hemolysis assay (nM)
Give the value, in units of nM, as a plain number.

Worked examples, 2 binders total:
[
  {
    "BINDER": "VVYENGYWEYPGVK (Ac-Nvl-Nvl-Y-E-N-Tbg-Y-azaTrp-E-Y-P-Chg-Nvl-K-(BODIPY-TMR-X) NH2) [R3076]",
    "Avg. IC50, human hemolysis assay (nM)": 297
  },
  {
    "BINDER": "MCVERFCD[Tle]Y[Trp(7-aza)]EYP[Phg][Nva]-NH2 (linker 2-7 via mXylyl(4); not fully specified; printed as [mXylyl(2,7)]M-C-V-E-R-F-C-D-Tbg-Y-azaTrp-E-Y-P-Phg-Nvl-NH2) [R3057]",
    "Avg. IC50, human hemolysis assay (nM)": 12.4
  }
]

Please look at the following binder next.
Query: I have this binder here, Ac-C[Tle]ERFCDVYWEF-NH2 (linker 1-6 via mXylyl(3)) [R3146] , and I need its recorded Avg. IC50, human hemolysis assay.
Response: 107
